# TARGET_DESC: CYP3A4 (Homo sapiens, UniProt P08684)
# Construct: Pooled human microsomes and selective CYP probe substrates were used; from tissue; host or cells: pooled human liver microsomes
# Sequence (P08684 whole entry): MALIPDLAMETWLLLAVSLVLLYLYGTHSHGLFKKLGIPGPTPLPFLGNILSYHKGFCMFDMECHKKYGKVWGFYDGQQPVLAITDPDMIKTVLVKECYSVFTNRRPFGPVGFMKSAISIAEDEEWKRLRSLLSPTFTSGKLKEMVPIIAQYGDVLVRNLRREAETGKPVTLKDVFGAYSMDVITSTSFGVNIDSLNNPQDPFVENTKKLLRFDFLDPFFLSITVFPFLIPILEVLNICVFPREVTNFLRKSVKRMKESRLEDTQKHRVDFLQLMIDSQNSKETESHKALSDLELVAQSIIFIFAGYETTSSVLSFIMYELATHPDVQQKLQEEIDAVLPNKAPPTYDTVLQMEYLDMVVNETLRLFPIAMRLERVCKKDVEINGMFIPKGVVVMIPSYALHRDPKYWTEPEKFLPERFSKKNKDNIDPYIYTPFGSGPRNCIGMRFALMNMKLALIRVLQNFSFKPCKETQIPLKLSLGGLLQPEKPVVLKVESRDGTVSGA
# ASSAY_INFO: Time-dependent inhibition of CYP3A4 in human liver microsomes (testosterone and midazolam probes)
# Assay type: in vitro ADME
# PARTICULARS: human, pooled human liver microsomes; CYP3A4-M (midazolam probe substrate), 25 μM, after 30 minutes incubation; read-out: % Activity NADPH T30
PARAMETER_MEASURED: activity at 30 min, 25 µM (%)

{"columns": ["SMILES_STRING", "activity at 30 min, 25 µM / %"],
 "data": [
  ["CC(C)N1CC(=O)N(Cc2ccc(Cl)c(F)c2)C2(CN(c3cccnn3)C2)C1=O", 100],
  ["C[C@H]1CC[C@H](N2CC(=O)N(Cc3ccc(F)c(Cl)c3)C3(CN(C(N)=O)C3)C2=O)CC1", 100],
  ["CC(C)N1CC(=O)N(Cc2ccc(C(F)(F)F)cc2)C2(CN(c3cccnn3)C2)C1=O", 88],
  ["C[C@H]1CC[C@H](N2CC(=O)N(Cc3ccc(F)c(F)c3)C3(CN(C(N)=O)C3)C2=O)CC1", 69],
  ["C[C@H]1CC[C@H](N2CC(=O)N(Cc3ccc(Cl)cc3)C3(CN(C(N)=O)C3)C2=O)CC1", 71],
  ["Cc1cc(CN2C(=O)CN([C@H]3CC[C@H](C)CC3)C(=O)C23CN(C(N)=O)C3)ccc1F", 89]
]}

---

# TARGET_DESC: CYP2C9 (Homo sapiens)
# Construct: Pooled human microsomes and selective CYP probe substrates were used; from tissue; host or cells: pooled human liver microsomes
# Sequence (P11712 whole entry): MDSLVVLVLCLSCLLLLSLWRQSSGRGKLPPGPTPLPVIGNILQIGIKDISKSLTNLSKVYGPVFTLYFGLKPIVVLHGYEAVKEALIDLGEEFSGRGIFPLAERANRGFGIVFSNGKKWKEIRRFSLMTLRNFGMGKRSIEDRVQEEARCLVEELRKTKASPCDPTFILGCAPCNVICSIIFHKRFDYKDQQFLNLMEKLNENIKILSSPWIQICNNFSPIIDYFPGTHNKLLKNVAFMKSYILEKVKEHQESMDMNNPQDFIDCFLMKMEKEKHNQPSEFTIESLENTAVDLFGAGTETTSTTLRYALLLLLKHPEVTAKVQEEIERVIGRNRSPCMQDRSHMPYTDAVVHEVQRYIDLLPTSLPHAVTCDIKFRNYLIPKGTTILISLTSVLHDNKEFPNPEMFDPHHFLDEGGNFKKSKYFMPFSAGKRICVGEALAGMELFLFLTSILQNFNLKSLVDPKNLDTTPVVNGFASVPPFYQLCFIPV
# ASSAY_INFO: Time-dependent inhibition of CYP2C9 in human liver microsomes
# Assay type: in vitro ADME
# PARTICULARS: CYP2C9, 25 μM, fold change
PARAMETER_MEASURED: (% Activity NADPH T0)/(% Activity NADPH T30)

{"columns": ["MOLECULE", "NUMERIC_VALUE"],
 "data": [
  ["CC(C)N1CC(=O)N(Cc2ccc(C(F)(F)F)cc2)C2(CN(c3cccnn3)C2)C1=O [Compound 13]", 0.9],
  ["C[C@H]1CC[C@H](N2CC(=O)N(Cc3ccc(F)c(Cl)c3)C3(CN(C(N)=O)C3)C2=O)CC1 [Compound 7]", 1.3],
  ["CC(C)N1CC(=O)N(Cc2ccc(Cl)c(F)c2)C2(CN(c3cccnn3)C2)C1=O [Compound 8]", 1.0],
  ["C[C@H]1CC[C@H](N2CC(=O)N(Cc3ccc(F)c(F)c3)C3(CN(C(N)=O)C3)C2=O)CC1 [Compound 5]", 0.8],
  ["C[C@H]1CC[C@H](N2CC(=O)N(Cc3ccc(Cl)cc3)C3(CN(C(N)=O)C3)C2=O)CC1 [Compound 18]", 0.9],
  ["Cc1cc(CN2C(=O)CN([C@H]3CC[C@H](C)CC3)C(=O)C23CN(C(N)=O)C3)ccc1F [Compound 6]", 1.2],
  ["C[C@H]1CC[C@H](N2CC(=O)N(Cc3ccc(F)c(F)c3)C3(CN(C=O)C3)C2=O)CC1 [Compound 4]", 1.0]
]}

---

# ASSAY_INFO: Dog single dose pharmacokinetics
# Type: in vivo, beagle dogs
# PARTICULARS: male, beagle, plasma, IV, read-out: t½ (converted)
PARAMETER_MEASURED: half-life (min)

{"columns": ["MOLECULE", "half-life [min]"],
 "data": [
  ["O=CN1CC2(C1)C(=O)N(c1ccc(F)cc1F)CC(=O)N2Cc1ccc(Cl)cc1 [Comparator A, reference compound]", 2350]
]}

A: CC(=O)N1CC2(C1)C(=O)N(c1ccc(C#N)cc1F)CC(=O)N2Cc1ccc(C(F)(F)F)cc1
B: CC(C)N1CC(=O)N(Cc2ccc(C(F)(F)F)cc2)C2(CN(c3cccnn3)C2)C1=O
Prompt: Between item A and item B , which reported half-life is smaller? Could you answer with the label of the item you picked?
Response: B
(B: 386 min, A: 1420 min)

Ref: patent US12286437B2
